// note: pIC50 values for UniProtKB P06213 were reported in different studies
pIC50: −log10 of the molar value.

*Q* UniProtKB P06213 / pIC50 / COc1cccc(OC[C@H](O)CNc2cc[nH]c(=O)c2-c2nc3cc4c(cc3[nH]2)C(=O)N(C2CCN(C)CC2)C4)c1C : value?
*A* > 6.30

*Q* Form field - read-out: pIC50; system: UniProtKB P06213; submitted item: Cc1ncsc1CCN1C(=O)c2cc3nc(-c4c(NC[C@@H](O)c5cccc(Cl)c5)cc[nH]c4=O)[nH]c3cc2C1=O
*A* < 4.82

*Q* Value wanted: pIC50 (UniProtKB P06213) of entry CCN1CCC(Nc2ccc3c(c2)/C(=C(\c2ccc(F)c(F)c2)c2ncc[nH]2)C(=O)N3)CC1
*A* < 5.30

*Q* Enter reported pIC50 observed with UniProtKB P06213 for CN1CCC(N2C(=O)c3cc4nc(-c5c(NNC(=O)C(O)c6ccccc6)ccnc5O)[nH]c4cc3C2=O)CC1 (stereo not drawn)
*A* 4.82 to 5.30

*Q* Value wanted: pIC50 (UniProtKB P06213) of entry CN1CCC(N2C(=O)c3cc4nc(-c5c(NC[C@@H](O)COc6cccc7c6OC(F)C(F)(F)O7)cc[nH]c5=O)[nH]c4cc3C2=O)CC1 (stereo partly drawn)
*A* 5.30 to 6.30

*Q* // fetch UniProtKB P06213 pIC50 for CS(=O)(=O)N1CCC(Nc2ccc3c(c2)/C(=C(\c2cccc(F)c2)c2ncc[nH]2)C(=O)N3)CC1
*A* 5.30 to 6.30

*Q* Recorded pIC50 for C=CC(=O)N[C@@H]1CN(c2nc(Nc3cn(C4CCN(C)CC4)nc3OC)c3ncc(C)n3n2)C[C@H]1F with UniProtKB P06213, please?
*A* ≤ 7.00

*Q* For the record CCN1CCC(Nc2ccc3c(c2)/C(=C(\c2ccc(C(F)(F)F)cc2)c2nc(C)c[nH]2)C(=O)N3)CC1 , what value of pIC50 is listed for UniProtKB P06213?
*A* 5.30 to 6.30

*Q* Recall the recorded pIC50 for Cc1c(Cl)cccc1OC[C@H](O)CNc1cc[nH]c(=O)c1-c1nc2cc3c(cc2[nH]1)C(=O)N(C1CCN(CCN(C)C)CC1)C3=O with UniProtKB P06213 and state it.
*A* 5.30 to 6.30

*Q* Report pIC50 for Cc1ccc(OC[C@@H](O)CNc2cc[nH]c(=O)c2-c2nc3cc4c(cc3[nH]2)C(=O)N(C2CCN(C)CC2)C4=O)c(C)c1 tested on UniProtKB P06213.
*A* 5.30 to 6.30

*Q* State its pIC50 on UniProtKB P06213: CN1CCC(N2Cc3cc4nc(-c5c(NC[C@@H](O)c6cccc(Cl)c6)cc[nH]c5=O)[nH]c4cc3C2=O)CC1
*A* > 6.30

*Q* Record CC(C)(CO)CN1C(=O)c2cc3nc(-c4c(NC[C@@H](O)c5cccc(Cl)c5)cc[nH]c4=O)[nH]c3cc2C1=O : what is its pIC50 with UniProtKB P06213?
*A* 4.82 to 5.30

*Q* Given the entry CN1CCC(N2C(=O)c3cc4nc(-c5c(NC[C@@H](O)Cn6cnc7ccccc76)ccnc5O)[nH]c4cc3C2=O)CC1 , what pIC50 was observed with UniProtKB P06213?
*A* 5.30 to 6.30

*Q* What value of pIC50 on UniProtKB P06213 does CNC(=O)c1cccc(C)c1Nc1nc(Nc2ccc(OC34CC5CC(C3)C(=O)C(C5)C4)cc2OC)ncc1C(F)(F)F have?
*A* < 5.00

*Q* // fetch UniProtKB P06213 pIC50 for CN1CCC(N2Cc3cc4nc(-c5c(NC[C@@H](O)COc6cc(F)cc(F)c6Cl)cc[nH]c5=O)[nH]c4cc3C2=O)CC1
*A* > 6.30

*Q* Under UniProtKB P06213: pIC50 value of CCN1CCC(Nc2ccc3c(c2)/C(=C(\c2cc(F)cc(F)c2)c2ncc[nH]2)C(=O)N3)CC1 ?
*A* < 5.30

*Q* Give UniProtKB P06213 pIC50 for CS(=O)(=O)N1CCC(Nc2ccc3c(c2)/C(=C(\c2ccccc2)c2nc4ccccc4[nH]2)C(=O)N3)CC1
*A* 5.30 to 6.30

*Q* Return pIC50 measured with UniProtKB P06213 given this compound: CN1CCC(N2C(=O)c3cc4nc(-c5c(NC[C@@H](O)COc6c(F)ccc(Cl)c6F)cc[nH]c5=O)[nH]c4cc3C2=O)CC1
*A* > 6.30

*Q* What reported pIC50 corresponds to COCCN1CCC(Nc2ccc3c(c2)/C(=C(\c2ccc(C)c(F)c2)c2nc(C)c[nH]2)C(=O)N3)CC1 on UniProtKB P06213?
*A* 5.30 to 6.30

*Q* Test system UniProtKB P06213; read-out pIC50; what value for CN1CCC(N2Cc3cc4nc(-c5c(NC[C@@H](O)COc6cc(C(F)(F)F)ccc6Cl)cc[nH]c5=O)[nH]c4cc3C2=O)CC1 ?
*A* > 6.30

*Q* Param readout = pIC50; param system = UniProtKB P06213; param query = COCCN1CCC(Nc2ccc3c(c2)/C(=C(\c2ccc(C)cc2)c2nc(C)c[nH]2)C(=O)N3)CC1 ; response: value
*A* 5.30 to 6.30
